System: Human immunodeficiency virus 1
Experiment: Antiviral activity against HIV1 isolate 05-121794 assessed as inhibition of viral replication after 7 days by scintillation counting
Format: functional, organism-based
Details: Human immunodeficiency virus 1, isolate 05-121794, 168 h
Measured attribute: IC50 (nM)
Only the number, expressed in nM, is required.

Report IC50 for CN1CCN(c2cccc3nc(CN(C)[C@H]4CCCc5cccnc54)c(CO)n23)CC1 please.
1

###

Assay: Clearance in rat at 1 mg/kg, iv administered as single dose after 24 hrs by liquid chromatography-mass spectroscopy
Format: ADME, organism-based
Set-up: dose 1 mg/kg, route intravenous
Conditions: in vivo
Measured attribute: clearance (mL/min/kg)
Only the number, expressed in mL/min/kg, is required.

Report clearance for CN1CCN(c2cccc3nc(CN(C)[C@H]4CCCc5cccnc54)c(CO)n23)CC1 please.
4.5

###

Experiment: Half life in monkey at 3 mg/kg, po administered as single dose by liquid chromatography-mass spectroscopy
Format: ADME, organism-based, Macaca mulatta
Set-up: dose 3 mg/kg, route oral
Conditions: rhesus monkey, in vivo
Measured attribute: half-life

Report half-life for CN1CCN(c2cccc3nc(CN(C)[C@H]4CCCc5cccnc54)c(CO)n23)CC1 please.
> 12 h

###

Assay: Clearance in mouse at 1 mg/kg, iv administered as single dose after 24 hrs by liquid chromatography-mass spectroscopy
Assay type: ADME, organism-based
Set-up: dose 1 mg/kg, route intravenous
Settings: in vivo
Measured attribute: clearance (mL/min/kg)
Only the number, expressed in mL/min/kg, is required.

Report clearance for CN1CCN(c2cccc3nc(CN(C)[C@H]4CCCc5cccnc54)c(CO)n23)CC1 please.
15.9

###

Experiment: Oral bioavailability in dog at 3 mg/kg administered as single dose after 24 hrs by liquid chromatography-mass spectroscopy
Assay type: ADME, organism-based, Canis lupus familiaris
Conditions: in vivo
Measured attribute: bioavailability (%)
Only the number, expressed in %, is required.

Report bioavailability for CN1CCN(c2cccc3nc(CN(C)[C@H]4CCCc5cccnc54)c(CO)n23)CC1 please.
21

###

Assay: Oral bioavailability in rat at 3 mg/kg administered as single dose after 24 hrs by liquid chromatography-mass spectroscopy
Assay type: ADME, organism-based
Conditions: in vivo
Measured attribute: bioavailability (%)
Only the number, expressed in %, is required.

Report bioavailability for CN1CCN(c2cccc3nc(CN(C)[C@H]4CCCc5cccnc54)c(CO)n23)CC1 please.
21

###

Tested on: Human immunodeficiency virus 1
Assay: Antiviral activity against HIV1 isolate 05-121778 assessed as inhibition of viral replication after 7 days by scintillation counting
Format: functional, organism-based
Conditions: Human immunodeficiency virus 1, isolate 05-121778, 168 h
Measured attribute: IC50 (nM)
Only the number, expressed in nM, is required.

Report IC50 for CN1CCN(c2cccc3nc(CN(C)[C@H]4CCCc5cccnc54)c(CO)n23)CC1 please.
1

###

Experiment: Half life in iv dosed rat
Assay type: ADME, organism-based
Settings: in vivo
Measured attribute: half-life (h)
Only the number, expressed in h, is required.

Report half-life for CCCN(CCC)CCCCN(C)Cc1ccc(CN(Cc2ncc[nH]2)Cc2nccn2C)cc1 please.
99

###

System: Human immunodeficiency virus 1
Assay: Antiviral activity against HIV1 isolate 05-121796 assessed as inhibition of viral replication after 7 days by scintillation counting
Assay type: functional, organism-based
Conditions: Human immunodeficiency virus 1, isolate 05-121796, 168 h
Measured attribute: pIC50
The read-out pIC50 is expressed as -log10 of concentration in moles per litre.

Item CN1CCN(c2cccc3nc(CN(C)[C@H]4CCCc5cccnc54)c(CO)n23)CC1 with Human immunodeficiency virus 1 - pIC50?
9.00

Provenance of the data: ChEMBL document CHEMBL1240366
